Each recorded value in this set is attributed to PubChem BioAssay (NCI).

Reported TGI values are given for each entry in this list.
- Tested on: UACC-62 melanoma
- Assay Remarks: NCI tumour cell line growth inhibition, 48 h
Assay Endpoint: TGI

>>> result("O=C(OCCN1CCCCC1)C(c1ccccc1)C1(O)CCSCC1 (stereo not drawn)")
"> 100 µM"
>>> result("COCN1CCN=c2c1c1c3c(c4ccccc4n23)CCC1")
"> 100 µM"
>>> result("Cc1cc2ccccc2n1CC(=O)N1CCCC1")
"> 100 µM"

* * *

// reported TGI for each item listed
- Test system: DMS 114 small cell lung
- Assay Remarks: NCI tumour cell line growth inhibition, 48 h
Assay Endpoint: TGI

>>> result("Oc1ccc2c(c1)CC[N+]1=C2CCC2CCCC21 (stereo unspecified)")
"> 100 µM"
>>> result("CN(C)CCCNc1c2ccccc2nc2cccc([N+](=O)[O-])c12")
"0.0385 µM"
>>> result("CC1=C(C)CC2(SC1)C(=O)c1ccccc1C2=O")
"> 100 µM"
>>> result("C=CCC12CCC(=O)C=C1CCC1(C2)OCCO1 (stereo unspecified)")
"> 100 µM"
>>> result("CC(=O)NC1=C(C)C(=O)c2c(nc3n2CCC3O)C1=O (stereo unspecified)")
"21 µM"
>>> result("O=C1O[C@H](C(Cl)(Cl)Cl)N2CCCC12 (stereo partly specified)")
"> 100 µM"

* * *

In this section we review reported TGI values for a set of compounds.
- System: MALME-3M melanoma
- Assay Remarks: NCI tumour cell line growth inhibition, 48 h
Where a SMILES comes first, the peptide text is derived from it. The star is where a group is joined. Boc = CC(C)(C)OC(=O)*
Assay Endpoint: TGI

>>> result("COc1cc([C@@H]2c3cc4c(cc3C(Br)[C@H]3COC(=O)[C@H]23)OCO4)cc(OC)c1OC (stereo partly specified)")
"> 100 µM"
>>> result("Cc1ccc(C(=O)O/N=C2/CCCCC2CN(C)C)cc1 (stereo unspecified)")
"> 100 µM"
>>> result("CCON=C1C(C)(C)C(C)(C)C(C)(C)C1(C)C")
"> 100 µM"
>>> result("CCNC(=O)/C=C/CCC#Cc1ccc(-c2ccc(-c3cccs3)s2)s1")
"> 100 µM"
>>> result("Cc1ccc(-n2c(O)c3c(N)n[nH]c3c(C#N)c2=O)cc1")
"> 100 µM"
>>> result("CCCCCCCCCCCCCCCC(=O)OCC1OC(n2cnc3c(=S)nc(N)[nH]c32)C(OC(=O)CCCCCCCCCCCCCCC)C1OC(=O)CCCCCCCCCCCCCCC (stereo unspecified)")
"> 50 µM"
>>> result("C=CCC12CCC(=O)C=C1CCC1(C2)OCCO1 (stereo unspecified)")
"> 100 µM"
>>> result("O=C(Nc1nnc(-c2ccccc2)o1)C(SC(=S)N1CCOCC1)c1ccccc1 (stereo unspecified)")
"> 100 µM"
>>> result("COc1ccc(C[C@H](N)C(=O)N2C[C@H](CO)C[C@H](n3ccc(=O)[nH]c3=O)C2)cc1")
"> 100 µM"
>>> result("O=C(CN1CCCCC1)c1ccc2c(c1)Sc1ccccc1O2")
"33.4 µM"
>>> result("CCOC(=O)C1=C(C)C(C(=O)OC)/C(=C/c2cccc3cccnc23)C1=O (stereo unspecified)")
"> 10 µM"
>>> result("CCOC(=O)C(NC(=O)CC(C)C)(Nc1ccc(C(F)(F)F)cc1)C(F)(F)F (stereo unspecified)")
"> 100 µM"
>>> result("COc1cc(N=Nc2ccccc2)cc(/C=N\\[N-]C(N)=S)c1[O-].COc1cc(N=Nc2ccccc2)cc(/C=N\\[N-]C(N)=S)c1[O-].[Fe+4]")
"> 100 µM"
>>> result("C[C@@H]1COCCN1c1nc(-c2cnc(N)cc2C(F)F)nc(N2[C@H](C)COC[C@@H]2C)n1")
"0.867 µM"
>>> result("CC(C)COC(=O)N1N=NC2C3OC(CC3=O)C21 (stereo unspecified)")
"> 100 µM"
>>> result("COC(=O)Nc1nc2ccc(Oc3ccc(NC(=O)Nc4cccc(Br)c4)cc3)cc2[nH]1")
"9.14 µM"
>>> result("Nc1ccc(-c2nc3cc(F)ccc3s2)cc1I")
"72.9 µM"
>>> result("COC(=O)C(Cc1c[nH]c2ccccc12)NC(=O)C(Cc1c[nH]c2ccccc12)NC(=O)C(Cc1c[nH]c2ccccc12)NC(=O)C(Cc1c[nH]c2ccccc12)NC(=O)OC(C)(C)C (stereo unspecified) (Boc-WWWW-OMe; configuration not given here)")
"> 100 µM"
>>> result("N#CC(C#N)=Cc1c(O)ccc2ccccc12")
"39.8 µM"
>>> result("OCc1cccc(-c2ccc3ncc(-c4nc(NC5CC5)ncc4F)n3c2)c1")
"1.06 µM"
>>> result("O=S1(=O)N(Cc2ccccc2)[C@@H](Cc2ccccc2)C2O[C@H]2[C@H](Cc2ccccc2)N1Cc1ccccc1 (stereo partly specified)")
"> 7.5 µM"
